Values from ChEMBL document CHEMBL3046897

tested on: Aspergillus niger; assay: Antifungal activity against Aspergillus niger after 48 hr by agar streak dilution method; type: functional
quantity kind: MIC (µg/mL)
Enter your answer as a number in µg/mL; do not include the unit.

The cases that follow already have their MIC on record.
Cc1cc(=O)oc2cc(Oc3nc(Nc4ccc(/N=C/c5ccccc5C(=O)O)cc4)nc(N(C)C)n3)ccc12	100
Cc1cc(=O)oc2cc(Oc3nc(Nc4ccc(/N=C/c5ccc(Cl)cc5Cl)cc4)nc(N(C)C)n3)ccc12	100
Cc1cc(=O)oc2cc(Oc3nc(Nc4ccc(N5C(=O)C(CN6CCN(c7ccccn7)CC6)SC5c5ccc(Cl)cc5)cc4)nc(N(C)C)n3)ccc12 (configuration not stated)	50
Cc1cc(=O)oc2cc(Oc3nc(Nc4ccc(/N=C/c5ccc([N+](=O)[O-])cc5)cc4)nc(N(C)C)n3)ccc12	100
Cc1cc(=O)oc2cc(Oc3nc(Nc4ccc(N5C(=O)CSC5c5ccc(Cl)c(Cl)c5)cc4)nc(N(C)C)n3)ccc12 (configuration not stated)	100
COc1ccc(C2SCC(=O)N2c2ccc(Nc3nc(Oc4ccc5c(C)cc(=O)oc5c4)nc(N(C)C)n3)cc2)cc1 (configuration not stated)	50

Now take the following compound into account.
Please report the recorded MIC for Cc1ccc(C2SC(CN3CCN(c4ccccn4)CC3)C(=O)N2c2ccc(Nc3nc(Oc4ccc5c(C)cc(=O)oc5c4)nc(N(C)C)n3)cc2)cc1 (configuration not stated) .
12.5

----------
tested on: Aspergillus clavatus; assay: Antifungal activity against Aspergillus clavatus after 48 hr by agar streak dilution method; assay type: functional
quantity kind: MIC (µg/mL)
Enter your answer as a number in µg/mL; do not include the unit.

The cases that follow already have their MIC on record.
Cc1cc(=O)oc2cc(Oc3nc(Nc4ccc(/N=C/c5ccc(Cl)cc5Cl)cc4)nc(N(C)C)n3)ccc12	50
Cc1cc(=O)oc2cc(Oc3nc(Nc4ccc(/N=C/c5cccc(F)c5)cc4)nc(N(C)C)n3)ccc12	50
Cc1cc(=O)oc2cc(Oc3nc(Nc4ccc(N5C(=O)C(CN6CCN(c7ccccn7)CC6)SC5c5ccc(F)cc5)cc4)nc(N(C)C)n3)ccc12 (centres undefined)	6.25

Now take the following compound into account.
Please report the recorded MIC for Cc1cc(=O)oc2cc(Oc3nc(Nc4ccc(N5C(=O)CSC5c5ccc([N+](=O)[O-])cc5)cc4)nc(N(C)C)n3)ccc12 (centres undefined) .
100

----------
test system: Candida albicans; assay: Antifungal activity against Candida albicans at 100 ug/disk after 48 hr by paper disk diffusion method; format: functional; settings: read-out: IZ
Parameter zone of inhibition at 100 µg/disc: see the listing below.
Enter your answer as a number in mm; do not include the unit.

The cases that follow already have their zone of inhibition at 100 µg/disc on record.
Cc1cc(=O)oc2cc(Oc3nc(Nc4ccc(N5C(=O)C(CN6CCN(c7ccccn7)CC6)SC5c5ccc(O)cc5O)cc4)nc(N(C)C)n3)ccc12 (stereo not given)	27
Cc1ccc(/C=N/c2ccc(Nc3nc(Oc4ccc5c(C)cc(=O)oc5c4)nc(N(C)C)n3)cc2)cc1	17
COc1ccc(C2SC(CN3CCN(c4ccccn4)CC3)C(=O)N2c2ccc(Nc3nc(Oc4ccc5c(C)cc(=O)oc5c4)nc(N(C)C)n3)cc2)cc1 (stereo not given)	23
Cc1cc(=O)oc2cc(Oc3nc(Nc4ccc(N5C(=O)CSC5c5ccccc5Br)cc4)nc(N(C)C)n3)ccc12 (stereo not given)	21
Cc1cc(=O)oc2cc(Oc3nc(Nc4ccc(/N=C/c5cccc(F)c5)cc4)nc(N(C)C)n3)ccc12	13
Cc1cc(=O)oc2cc(Oc3nc(Nc4ccc(N5C(=O)CSC5c5ccc(Cl)c(Cl)c5)cc4)nc(N(C)C)n3)ccc12 (stereo not given)	13

Please report the recorded zone of inhibition at 100 µg/disc for Cc1cc(=O)oc2cc(Oc3nc(Nc4ccc(/N=C/c5ccc(O)cc5O)cc4)nc(N(C)C)n3)ccc12 .
20

Try the compound Cc1cc(=O)oc2cc(Oc3nc(Nc4ccc(/N=C/c5ccc(Cl)cc5)cc4)nc(N(C)C)n3)ccc12
18

Try the compound Cc1ccc(C2SCC(=O)N2c2ccc(Nc3nc(Oc4ccc5c(C)cc(=O)oc5c4)nc(N(C)C)n3)cc2)cc1 (stereo not given)
20

Try the compound Cc1cc(=O)oc2cc(Oc3nc(Nc4ccc(N5C(=O)CSC5c5ccc(O)cc5)cc4)nc(N(C)C)n3)ccc12 (stereo not given)
19

Try the compound Cc1ccc(C2SC(CN3CCN(c4ccccn4)CC3)C(=O)N2c2ccc(Nc3nc(Oc4ccc5c(C)cc(=O)oc5c4)nc(N(C)C)n3)cc2)cc1 (stereo not given)
24
